SYSTEM: squalene synthetase (Rattus norvegicus, UniProt Q02769)
Construct: rat liver microsomal protein (20 μg)
Sequence (Q02769 1-416): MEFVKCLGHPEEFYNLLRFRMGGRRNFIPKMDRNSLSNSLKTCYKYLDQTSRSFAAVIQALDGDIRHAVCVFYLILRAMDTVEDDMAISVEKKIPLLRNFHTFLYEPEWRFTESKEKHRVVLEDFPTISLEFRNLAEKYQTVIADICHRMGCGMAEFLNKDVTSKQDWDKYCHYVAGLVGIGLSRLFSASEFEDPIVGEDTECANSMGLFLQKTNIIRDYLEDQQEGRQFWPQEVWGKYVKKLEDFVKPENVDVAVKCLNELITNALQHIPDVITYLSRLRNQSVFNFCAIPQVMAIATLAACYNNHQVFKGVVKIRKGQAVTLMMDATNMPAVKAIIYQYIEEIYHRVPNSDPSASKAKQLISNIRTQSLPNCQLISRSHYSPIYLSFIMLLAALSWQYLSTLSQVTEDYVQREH
METHOD_NOTES: Inhibition of Squalene Synthetase (prevention of squalene formation from tritiated farnesyl pyrophosphate, rat liver microsomal protein)
TEST_SETTINGS: rat liver microsomes; 1-[3H]-farnesyl pyrophosphate 20 μM; 37° C.; 15 minutes; read-out: IC50 (concentration which results in a 50% inhibition of squalene production)
pIC50: −log10 of the molar value. Where a name gives a salt, the structure may show the parent alone.
REPORTED_PROPERTY: pIC50

COMPOUND | SYSTEM | RECORDED_MEASUREMENT
CCCCOc1ccc(CCC2CN3CCC2CC3)cc1 (stereo not shown) [Example 4, hydrochloride] | squalene synthetase (Rattus norvegicus, UniProt Q02769) | 7.48
